// provenance: PubChem BioAssay (NCI)

- Tested on: HOP-62 NSCLC
- assayNotes: NCI tumour cell line growth inhibition, 48 h
measurementKind: TGI

The cases that follow already have their TGI on record.
compound	TGI
COC(=O)C12OCC34C(CC5C(C)C6=CC(=O)OC6=CC5(C)C3C(O)C1O)OC(=O)C(OC(C)=O)C24 (centres undefined)	53.2 µM
COc1ccc(C(=O)OC2C(OC3C(O)COC(O[C@H]4C[C@H]5[C@@H]6CC=C7C[C@@H](O)CC[C@]7(C)[C@H]6CC[C@]5(C)[C@H]4[C@H](C)C(=O)CCC(C)C)C3OC(=O)C(C)C)OCC(O)C2O)cc1 (some centres undefined)	1.45 µM
CC(=O)N(C(=O)CC(=O)NNCc1ccccc1Cl)c1ccc(Cl)cc1	> 10 µM

Ask: Please give the measured TGI for this compound: "O=C1CCN=C(NC(=O)C(F)(F)F)N1CCc1c[nH]c2ccccc12"
Result: > 100 µM

Ask: Please give the measured TGI for this compound: "O=c1[nH]ccc2nc(N3CCC(O)CC3)nc(Nc3ccc(N4CCOCC4)cc3)c12"
Result: > 100 µM

Ask: Please give the measured TGI for this compound: CC(C)NC1CCCCC2c3cc(F)ccc3[C@]12O (some centres undefined)
Result: > 100 µM

Ask: Please give the measured TGI for this compound: "NCc1ccc(O)c(O)c1O"
Result: > 73.9 µM

Ask: Please give the measured TGI for this compound: "Cc1ccc(N/C(=C(/C(Cl)=C(Cl)Cl)[N+](=O)[O-])n2nnc3ccccc32)cc1"
Result: 39.7 µM

Ask: Please give the measured TGI for this compound: "Cn1cc(S(=O)(=O)NC(=O)Nc2ccc(Cl)cc2)c(=O)c2ccc(Cl)cc21"
Result: > 100 µM

Ask: Please give the measured TGI for this compound: "Cc1nc2ccccc2c(=O)n1Nc1ccc(C(=O)O)cc1"
Result: > 100 µM

Ask: Please give the measured TGI for this compound: "CCCCCCN(CCCCCC)C1=CC(=O)C(=O)c2ccccc21"
Result: 32.8 µM

Ask: Please give the measured TGI for this compound: "CC(=O)Oc1c(C)cc2c(c1C)C(C)(C)CN2C(=O)C(C)(C)C"
Result: > 100 µM

Ask: Please give the measured TGI for this compound: "COc1ccc(-c2cc(=O)c3c(OC)c(O)c(OC)cc3o2)cc1"
Result: > 100 µM
